- testedOn: wild-type human MDD (Homo sapiens, UniProt P53602)
- Sequence (P53602 whole entry): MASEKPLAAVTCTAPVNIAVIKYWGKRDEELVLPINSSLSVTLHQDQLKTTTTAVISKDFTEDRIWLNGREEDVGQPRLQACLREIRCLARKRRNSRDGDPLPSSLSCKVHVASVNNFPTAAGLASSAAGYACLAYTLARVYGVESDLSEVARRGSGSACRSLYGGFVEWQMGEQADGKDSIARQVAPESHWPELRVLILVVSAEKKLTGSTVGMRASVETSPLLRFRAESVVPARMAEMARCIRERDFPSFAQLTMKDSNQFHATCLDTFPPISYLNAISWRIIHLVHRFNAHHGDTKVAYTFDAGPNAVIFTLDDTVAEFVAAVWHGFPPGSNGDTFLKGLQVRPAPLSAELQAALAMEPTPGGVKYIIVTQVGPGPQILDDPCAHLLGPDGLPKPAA
pKd: −log10 of the molar value.

>  <compound>
Nc1ncnc2c1ncn2[C@@H]1O[C@H](COP(=O)(O)OP(=O)(O)OP(=O)(O)O)[C@H]2OC3(O[C@H]21)C([N+](=O)[O-])=CC(=[N+]([O-])[O-])C=C3[N+](=O)[O-] (stereo partly shown)

>  <pKd>
6.26

$$$$
